Source of measurements: the supplement of paper PMC3334620

Target: Msn1 (UniProt P22148)
Sequence: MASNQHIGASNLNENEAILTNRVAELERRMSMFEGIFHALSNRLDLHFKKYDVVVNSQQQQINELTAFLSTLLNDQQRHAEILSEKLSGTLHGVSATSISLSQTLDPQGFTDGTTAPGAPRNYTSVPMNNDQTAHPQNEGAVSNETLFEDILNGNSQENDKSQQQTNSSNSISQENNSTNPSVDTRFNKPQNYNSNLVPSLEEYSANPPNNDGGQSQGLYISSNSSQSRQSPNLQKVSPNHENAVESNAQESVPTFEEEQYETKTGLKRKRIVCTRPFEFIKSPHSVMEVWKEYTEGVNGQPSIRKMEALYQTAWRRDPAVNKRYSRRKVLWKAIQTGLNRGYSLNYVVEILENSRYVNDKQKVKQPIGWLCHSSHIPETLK
Assay: PBM E-score (8-mer binding enrichment) (E-score (-0.5 to 0.5)); higher = stronger / more preferred TF binding
Settings: protein concentration: 200 nM; construct: GST-full length
The full ranking holds about 33,000 sequences; the median of “E-score (-0.5 to 0.5)” is about -0.013, and the highest 2% start at about 0.3. For the sample, the highest values were picked, then their nearest neighbours and some sequences at random.
Think of 0.1 as a floor: if PBM E-score stands on it or above, it is yes; beneath it, no.

Would you please look over these solved cases?
[
  {
    "Query sequence": "AACATGTT",
    "Category": "no"
  },
  {
    "Query sequence": "CAATAAGC",
    "Category": "no"
  },
  {
    "Query sequence": "CAAATTAA",
    "Category": "no"
  },
  {
    "Query sequence": "GCCCGTTA",
    "Category": "no"
  },
  {
    "Query sequence": "GCGGTCAC",
    "Category": "no"
  },
  {
    "Query sequence": "GAAATACC",
    "Category": "no"
  },
  {
    "Query sequence": "GGCAAACC",
    "Category": "no"
  },
  {
    "Query sequence": "ACGACATG",
    "Category": "yes"
  }
]

In: Reported PBM E-score reaches at least 0.1 for ACGACATA ?
Out: yes

In: Reported PBM E-score reaches at least 0.1 for CCGACATA ?
Out: yes

In: Reported PBM E-score reaches at least 0.1 for AATCTGGT ?
Out: no

In: Reported PBM E-score reaches at least 0.1 for AACATGTC ?
Out: yes

* * *

Biological target: Msn1 (UniProt P22148)
Sequence: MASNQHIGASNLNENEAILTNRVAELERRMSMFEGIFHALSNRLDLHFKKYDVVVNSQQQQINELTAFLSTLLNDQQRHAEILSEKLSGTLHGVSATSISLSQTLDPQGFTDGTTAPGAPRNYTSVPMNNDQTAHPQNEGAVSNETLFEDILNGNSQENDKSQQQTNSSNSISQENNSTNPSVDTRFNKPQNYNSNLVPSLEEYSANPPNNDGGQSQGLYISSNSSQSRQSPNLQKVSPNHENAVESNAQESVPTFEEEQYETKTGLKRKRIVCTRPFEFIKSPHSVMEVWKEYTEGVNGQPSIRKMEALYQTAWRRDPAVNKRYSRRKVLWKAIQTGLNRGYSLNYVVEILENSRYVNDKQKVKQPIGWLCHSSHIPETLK
Assay: PBM E-score (8-mer binding enrichment) (E-score (-0.5 to 0.5)); higher = stronger / more preferred TF binding
Conditions: protein concentration: 200 nM; construct: GST-full length
In all, about 33,000 sequences were measured (“E-score (-0.5 to 0.5)”: median about -0.013, highest 2% from about 0.3 on). This is one part of a sample in which the highest values are shown more often than they occur.
Reported metric: PBM E-score

In: Answer with the recorded PBM E-score of CAGTTTAC only.
Out: -0.0477

In: Answer with the recorded PBM E-score of CCTGATAG only.
Out: -0.222

In: Answer with the recorded PBM E-score of AAAATGGG only.
Out: 0.182

In: Answer with the recorded PBM E-score of ATAGAGCG only.
Out: -0.0637

In: Answer with the recorded PBM E-score of GAAGGACC only.
Out: -0.139

In: Answer with the recorded PBM E-score of CCTGTCCC only.
Out: 0.282
